Assay: Cell Viability - LYMP2-021 (AID 974);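 also: compound exposure lasts 24 hours at 37 °C; nearly all actives have a fitted effect of over 55% in size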
Settings: LYMP2-021 lymphoblastoid cells viability; series mostly up to 92.2 µM
From the text: NIH Chemical Genomics Center [NCGC] NIH Molecular Libraries Screening Centers Network [MLSCN] National Institutes of Environmental Health Sciences [NIEHS] National Toxicology Program [NTP] We have developed a 1536-well cell-based assay for quantitative high throughput screening (qHTS) against a number of cell lines to determine in vitro cytotoxicity of small molecules. […] 8. Detection; Luminescence; Viewlux plate reader […]
Records with an inconclusive call do not appear. Activity calls are given as the source filed them. Calls follow the shape of the dose curve; as a rule, active = well fitted cell-killing curve with a large enough effect; inconclusive = small, poorly fitted or top-dose-only effect; inactive = flat fitted curve, though single readings scatter.
Possible outcomes: active, inactive

compound=CC(C)(C)c1ccc(O)c(O)c1 answerlabel=active
compound=CC(C)C(C)(C)C(C)(C)C(C)(C)S answerlabel=inactive
compound=O=C(NO)c1ccccc1 answerlabel=inactive
compound="C1=CC2C3C=CC(C3)C2C1 (stereo not given)" answerlabel=inactive
compound=Cc1cc(C(C)(C)C)c(O)c(C(C)(C)C)c1 answerlabel=inactive

----------
Experiment: qHTS of pediatric cancer cell lines to identify multiple opportunities for drug repurposing: Confirmatory screen for NB1643 cells (AID 1347109); also: nearly all actives have a fitted effect of over 45% in size
Conditions: NB1643 neuroblastoma cell viability; series mostly up to 45.9 µM
Records with an inconclusive call do not appear. The source made the active and inactive calls. The call rests on the fitted dose curve; in most records, active means well fitted cell-killing curve with a large enough effect; inconclusive means small, poorly fitted or top-dose-only effect, or effect the other way; inactive means no such curve, though single readings can be large or run the other way.
Outcomes: active, inactive

structurestring=CC(C)=CCC/C(C)=C/CC/C(C)=C/C(=O)OCC(=O)[C@@]1(O)CC[C@H]2[C@@H]3CCC4=CC(=O)C=C[C@]4(C)[C@H]3[C@@H](O)C[C@@]21C answerlabel=active
structurestring=C[C@]12CCC(=O)C=C1CC[C@@H]1[C@@H]2[C@@H](O)C[C@@]2(C)[C@H]1CC[C@]2(O)C(=O)COC(=O)CCC(=O)O answerlabel=inactive
structurestring=N=C(N)c1ccc(OCCCOc2ccc(C(=N)N)cc2)cc1 answerlabel=inactive
structurestring=Nc1c2ccccc2nc2ccccc12 answerlabel=active
structurestring=CC(=O)OCC(=O)[C@@]1(O)[C@H](OC(C)=O)C[C@H]2[C@@H]3CCC4=CC(=O)C=C[C@]4(C)[C@@]3(F)[C@@H](O)C[C@@]21C answerlabel=inactive
structurestring=CC(=O)O[C@@H]1C(=O)O[C@@H]2[C@H]1OC(=O)[C@@H]2OC(C)=O answerlabel=inactive
structurestring=CC[C@@]1(O)C(=O)OCc2c1cc1n(c2=O)Cc2c-1nc1ccccc1c2/C=N/OC(C)(C)C answerlabel=active

----------
Test system: NIH3T3
Test: Cytotoxic Profiling of Annotated Libraries Using Quantitative High-Throughput Screening (AID 1296008); also: % is scaled to controls: 0 for no effect and ±100 for the full control effect; nearly all actives have a fitted effect of over 60% in size
Conditions: Five cell lines viability, CellTiter-Glo ATP luminescence, 48-72 h; hits give low values
Description: Cell-based phenotypic screening is a commonly used approach to discover biological pathways, novel drug targets, chemical probes and high-quality hit-to-lead molecules. […] A pintool (Kalypsys) was used to transfer 23 nL of compound solution to the 1536-well assay plates. […] Plates were left at room temperature for 10 min before imaging the ATP-coupled luminescence using a ViewLux microplate imager (PerkinElmer, Waltham, MA).
Inconclusive results are not listed.
measuredProperty: max response (%)

molecule="CCN1C(=O)c2ccccc2C1Nc1ccc(OCCN2CCCCC2)cc1 (configuration not stated)" scaleunit=% numericreadout=-13.7
molecule=CCc1cccc2c(CCO)c[nH]c12 scaleunit=% numericreadout=1.36
molecule=CC(C)NC(=O)c1ccc(C=O)cc1 scaleunit=% numericreadout=3.81
molecule=O=C(O)c1ccccc1Nc1cc(Cl)ccc1C(=O)O scaleunit=% numericreadout=-15.4
molecule=COC(=O)C1=CO[C@@H](O)[C@@H]2C(CO)=CC[C@H]12 scaleunit=% numericreadout=-14.6
molecule="CCN(CC)C(=O)C1CN2CCc3cc(OC)c(OC)cc3C2CC1OC(C)=O (configuration not stated)" scaleunit=% numericreadout=-5.34
molecule="NC(=O)NC1N=C([O][Al])NC1=O (configuration not stated)" scaleunit=% numericreadout=1.11
molecule=C[C@H](CN1CCCC1)C(=O)c1ccc(C(F)(F)F)cc1 scaleunit=% numericreadout=-14.5
molecule=O=C(Oc1ccccc1)c1cccc(C(=O)Oc2ccccc2)c1 scaleunit=% numericreadout=-5.12
molecule=Cc1nn(-c2ccccc2)c(C)c1/C=N/N1CCN(Cc2ccccc2)CC1 scaleunit=% numericreadout=3.85
molecule=CN(C)[C@@H]1C(=O)C(C(N)=O)=C(O)[C@@]2(O)C(=O)C3=C(O)c4c(O)cccc4C[C@H]3C[C@@H]12 scaleunit=% numericreadout=1.19
molecule=O=C1c2ccccc2CCc2ccccc21 scaleunit=% numericreadout=0.759
molecule="CCCN(CCC)C(=O)C(CCC(=O)OCCCN1CCN(CCOC(=O)Cc2c(C)n(C(=O)c3ccc(Cl)cc3)c3ccc(OC)cc23)CC1)NC(=O)c1ccccc1 (configuration not stated)" scaleunit=% numericreadout=1.41
molecule="C[C@@H]1CCC[C@H](C)N1CCCC(O)(c1ccccc1)c1ccccn1 (some centres not stated)" scaleunit=% numericreadout=-1.21
molecule=Cc1ccc(O)cc1 scaleunit=% numericreadout=0.99
molecule=COc1cc(NS(=O)(=O)c2ccc(N)cc2)nc(C)n1 scaleunit=% numericreadout=4.73
molecule=C[C@@]12CCC[C@H]1[C@@H]1CC[C@H]3C[C@@H](O)CC[C@]3(C)[C@H]1CC2 scaleunit=% numericreadout=0.76
molecule=CC1(C)O[C@@H]2C[C@H]3[C@@H]4C[C@H](F)C5=CC(=O)C=C[C@]5(C)[C@@]4(F)[C@@H](O)C[C@]3(C)[C@]2(C(=O)CO)O1 scaleunit=% numericreadout=-12.6
molecule=CCOC(=O)NNc1nncc2ccccc12 scaleunit=% numericreadout=3.89
molecule=CN1CC(=O)N2[C@H](c3ccc4c(c3)OCO4)c3[nH]c4ccccc4c3C[C@@H]2C1=O scaleunit=% numericreadout=3.47
molecule="CCCC(=O)OCOC(=O)C1=C(C)NC(C)=C(C(=O)OC)C1c1cccc(Cl)c1Cl (configuration not stated)" scaleunit=% numericreadout=0.493
molecule=Nc1nnnn1-c1ccccc1 scaleunit=% numericreadout=-4.79

----------
Target: Cytochrome P450 2C9 (Homo sapiens)
Experiment: Cytochrome P450 family 2 subfamily C member 9 (CYP2C9) small molecule antagonists: luciferase biochemical (cell-free) qHTS assay (AID 1645842); also: nearly all actives have a fitted effect of over 55% in size
Conditions: P450-Glo CYP2C9 enzyme assay, luciferin luminescence; series mostly up to 57.4 µM
Inconclusive results are not listed. Calls of active or inactive are those of the source. Calls come from the whole dose curve; as a rule, active = well fitted inhibition curve with a large enough effect in the repeat runs; inconclusive = weak or mixed curves; inactive = no such curve, though single readings can be large or run the other way. Where a SMILES comes first, the peptide text is derived from it. [ ]: non-standard residue; d: D form. pGlu = O=C1CC[C@@H](C(=O)O)N1
Possible outcomes: 1 (yes) (active), 0 (no) (inactive)

compound=O=C(O)/C=C(\CC(=O)O)C(=O)O experimentalsystem="Cytochrome P450 2C9 (Homo sapiens)" answerlabel="0 (no)"
compound=CC(=O)Nc1ccc(S(=O)(=O)Nc2cc(C)on2)cc1 experimentalsystem="Cytochrome P450 2C9 (Homo sapiens)" answerlabel="0 (no)"
compound=CCCC(=O)O[C@]1(C(=O)COC(=O)CC)CC[C@H]2[C@@H]3CCC4=CC(=O)CC[C@]4(C)[C@H]3[C@@H](O)C[C@@]21C experimentalsystem="Cytochrome P450 2C9 (Homo sapiens)" answerlabel="0 (no)"
compound=CCC(CN)=C(c1ccccc1)c1ccccc1 experimentalsystem="Cytochrome P450 2C9 (Homo sapiens)" answerlabel="1 (yes)"
compound="CCNC(=O)[C@@H]1CCCN1C(=O)[C@H](CCCN=C(N)N)NC(=O)[C@H](CC(C)C)NC(=O)CNC(=O)[C@H](Cc1ccc(O)cc1)NC(=O)[C@H](CO)NC(=O)[C@H](Cc1c[nH]c2ccccc12)NC(=O)[C@H](Cc1cnc[nH]1)NC(=O)[C@@H]1CCC(=O)N1 ([pGlu]HWSYGLRP-NHEt)" experimentalsystem="Cytochrome P450 2C9 (Homo sapiens)" answerlabel="0 (no)"
compound=c1ccc(C(O[C@H]2CCCN(CCc3ccc4c(c3)OCO4)C2)c2ccccc2)cc1 experimentalsystem="Cytochrome P450 2C9 (Homo sapiens)" answerlabel="1 (yes)"
compound=CCCCN(CCN(CCCC)C(=O)N1CCOCC1)C(=O)N1CCOCC1 experimentalsystem="Cytochrome P450 2C9 (Homo sapiens)" answerlabel="0 (no)"
compound=O=C(NN1CCCC1)NS(=O)(=O)c1ccc(Cl)cc1 experimentalsystem="Cytochrome P450 2C9 (Homo sapiens)" answerlabel="0 (no)"
compound=COc1cc(/C=C/C(N)=O)cc(OC)c1OC experimentalsystem="Cytochrome P450 2C9 (Homo sapiens)" answerlabel="0 (no)"

----------
Assay: qHTS of pediatric cancer cell lines to identify multiple opportunities for drug repurposing: Primary screen for RD cells (AID 1347104); also: nearly all actives have a fitted effect of over 55% in size
Settings: RD rhabdomyosarcoma viability, CellTiter-Glo luminescence, 48 h; series mostly up to 46 µM
Inconclusive results are not listed. Calls of active or inactive are those of the source. Calls come from the whole dose curve; as a rule, active = well fitted cell-killing curve with a large enough effect; inconclusive = small, poorly fitted or top-dose-only effect; inactive = flat fitted curve, though single readings scatter.
Possible outcomes: y = active, n = inactive

molecule="CC(=O)Nc1ccn(C2COC(COC(=O)c3ccccc3)O2)c(=O)n1 (configuration not stated)" answerlabel=n
molecule=O=C(CCCl)NCc1ccccc1 answerlabel=n
molecule=Cc1coc2ccccc2c1=O answerlabel=n
molecule=Clc1ccc2c(c1)Nc1ccccc1S2 answerlabel=n
molecule=CC1(C)O[C@@H]2C[C@H]3[C@@H]4C[C@H](F)C5=CC(=O)C=C[C@]5(C)[C@@]4(F)[C@@H](O)C[C@]3(C)[C@]2(C(=O)CO)O1 answerlabel=n
molecule=CCCC(=O)Nc1ccc(O)c(C(C)=O)c1 answerlabel=n
molecule=CC(=O)Nc1ccc(S(=O)(=O)Nc2cc(C)on2)cc1 answerlabel=n
molecule=O=C(O)c1ccc(OCCN2CCCCC2)cc1 answerlabel=n
molecule=Cc1cc2nc3ccc(=[N+](C)C)cc-3sc2cc1N answerlabel=y
molecule=CN1CCCN=C1/C=C/c1cccs1 answerlabel=n
molecule=COc1cc2c(cc1OC)C(=O)CC2 answerlabel=n
molecule=CCOC(=O)c1ccc(OCCN2C[C@H](O)[C@@H](O)[C@H](O)[C@H]2CO)cc1 answerlabel=n
